ASSAY_TEXT: ZT-1a pharmacokinetic properties in naive mice
Format: in vivo, ICR mice
CONDITION_CONTEXT: mouse; plasma; PO 10 mg/kg; ICR mice
MEASUREMENT_KIND: AUC(0-t)
Report field: quantity (unit follows the number).

// AUC(0-t) value for Cc1cc(C(C#N)c2ccc(Cl)cc2)c(Cl)cc1NC(=O)c1cc(Cl)ccc1O (stereo not shown) : 97.3 ng·h/mL

---

MEASURED_TARGET: GST–[T233E]SPAK kinase (Homo sapiens, UniProt Q9UEW8, T231E)
Construct: made in house; host or cells: E. coli
ASSAY_TEXT: SPAK kinase assay with CATCHtide and IC50 determination
Format: biochemical
CONDITION_CONTEXT: presence of five-fold molar excess of wild-type MO25α
MEASUREMENT_KIND: IC50 (µM)
Hi! Could you send only the number? It should be in µM, unit omitted.

Given the molecule Cc1cc(C(C#N)c2ccc(Cl)cc2)c(Cl)cc1NC(=O)c1cc(Cl)ccc1O (stereo not shown) and test system GST–[T233E]SPAK kinase (Homo sapiens, UniProt Q9UEW8, T231E), the measured IC50 is 41.3

---

ASSAY_TEXT: ZT-1a pharmacokinetic properties in naive mice
Type: in vivo, ICR mice
CONDITION_CONTEXT: mouse; plasma; IV 5 mg/kg; ICR mice
MEASUREMENT_KIND: Tmax (min)
# number only, unit min dropped from output

Query Cc1cc(C(C#N)c2ccc(Cl)cc2)c(Cl)cc1NC(=O)c1cc(Cl)ccc1O (stereo not shown) yields Tmax of 4.8

---

MEASURED_TARGET: GST–[T233E]SPAK kinase (Homo sapiens, UniProt Q9UEW8, T231E)
Construct: made in house; host or cells: E. coli
ASSAY_TEXT: SPAK kinase assay with CATCHtide and IC50 determination
Type: biochemical
CONDITION_CONTEXT: absence of wild-type MO25α
MEASUREMENT_KIND: IC50 (µM)
Just the number please, in µM, no unit attached.

Memo: Cc1cc(C(C#N)c2ccc(Cl)cc2)c(Cl)cc1NC(=O)c1cc(Cl)ccc1O (stereo not shown) , reported IC50: 40.5

---

ASSAY_TEXT: ZT-1a pharmacokinetic properties in naive mice
Assay type: in vivo, ICR mice
CONDITION_CONTEXT: mouse; plasma; PO 10 mg/kg; ICR mice
MEASUREMENT_KIND: Tmax (min)
Kindly provide the numeric value in min only, without the unit symbol.

Form: compound = Cc1cc(C(C#N)c2ccc(Cl)cc2)c(Cl)cc1NC(=O)c1cc(Cl)ccc1O (stereo not shown) ; Tmax = 15

---

ASSAY_TEXT: ZT-1a pharmacokinetic properties in naive mice
Type: in vivo, ICR mice
CONDITION_CONTEXT: mouse; plasma; PO 10 mg/kg; ICR mice
MEASUREMENT_KIND: AUC(0-inf) (ng·h/mL)
Output spec: scalar in ng·h/mL, unitless text.

The compound identified as Cc1cc(C(C#N)c2ccc(Cl)cc2)c(Cl)cc1NC(=O)c1cc(Cl)ccc1O (stereo not shown) registered its AUC(0-inf) at 105

---

Tested on: KCC3 pThr991
ASSAY_TEXT: Immunoblot of KCC site 1 phosphorylation (KCC3 Thr991) in HEK-293 cells transfected with FLAG-KCC3
Type: cell-based, human
CONDITION_CONTEXT: read-out: KCC3 pThr991 (μM), 50% inhibition; hypo (hypotonic); HEK-293; n = 3
Measured IC50 by item

# example entries with known answers
{"COMPOUND": "COc1ccc(Cl)cc1C(=O)Nc1cc(Cl)c(C(C#N)c2ccc(Cl)cc2)cc1C (stereo not drawn)", "IC50": "> 10 µM"}
{"COMPOUND": "Cc1cc(C(C#N)c2ccc(Cl)cc2)c(Cl)cc1NC(=O)c1ccccc1[N+](=O)[O-] (stereo not drawn)", "IC50": "> 10 µM"}

Record Cc1cc(C(C#N)c2ccc(Cl)cc2)c(Cl)cc1NC(=O)c1cccc(O)c1O (stereo not drawn) has KCC3 pThr991 IC50 equal to > 10 µM
